# System: NCI-H196 SCLC complex tumor spheroid viability
# TEST: Anticancer human tumor NCI-H196 cell line growth inhibition
# REPORTED CONDITIONS: second compound 0.00949 µM; first compound 0.0949 µM; hits give low values
MEASURE NAME: viability, T/C (%)
# value in %; strip the unit string

The value of viability, T/C measured for the compound O=C(c1cc(Cc2n[nH]c(=O)c3ccccc23)ccc1F)N1CCN(C(=O)C2CC2)CC1 + CC[C@@]1(O)C(=O)OCc2c1cc1n(c2=O)Cc2cc3c(CN(C)C)c(O)ccc3nc2-1 turned out to be 97.7

The value of viability, T/C measured for the compound Cn1ncnc1[C@H]1c2n[nH]c(=O)c3cc(F)cc(c23)N[C@@H]1c1ccc(F)cc1 + CC[C@@]1(O)C(=O)OCc2c1cc1n(c2=O)Cc2cc3c(CN(C)C)c(O)ccc3nc2-1 turned out to be 95.5

The value of viability, T/C measured for the compound Cc1sc2c(c1C)C(c1ccc(Cl)cc1)=NC(CC(=O)Nc1ccc(O)cc1)c1nnc(C)n1-2 (centres undefined) + CC[C@@]1(O)C(=O)OCc2c1cc1n(c2=O)Cc2cc3c(CN(C)C)c(O)ccc3nc2-1 turned out to be 86.8

The value of viability, T/C measured for the compound CNCc1ccc(-c2cc(-c3nc(-c4ccc(S(=O)(=O)C(C)C)cc4)cnc3N)on2)cc1 + CC[C@@]1(O)C(=O)OCc2c1cc1n(c2=O)Cc2cc3c(CN(C)C)c(O)ccc3nc2-1 turned out to be 112

----------
# System: NCI-H196 SCLC complex tumor spheroid viability
# TEST: Anticancer human tumor NCI-H196 cell line growth inhibition;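 note: spheroids exposed to compounds for 7 days before readout; 100% = DMSO vehicle control wells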
# REPORTED CONDITIONS: second compound 0.03 µM; first compound 0.949 µM; hits give low values
MEASURE NAME: viability, T/C (%)
# value in %; strip the unit string

Observe how each entry below is paired with its result.
# MOLECULE, MEASURE NAME, OBSERVED MEASUREMENT
rows = [
    ("Cc1sc2c(c1C)C(c1ccc(Cl)cc1)=NC(CC(=O)Nc1ccc(O)cc1)c1nnc(C)n1-2 (centres undefined) + CC[C@@]1(O)C(=O)OCc2c1cc1n(c2=O)Cc2cc3c(CN(C)C)c(O)ccc3nc2-1", "viability, T/C", 41.8),
    ("O=C(c1cc(Cc2n[nH]c(=O)c3ccccc23)ccc1F)N1CCN(C(=O)C2CC2)CC1 + CC[C@@]1(O)C(=O)OCc2c1cc1n(c2=O)Cc2cc3c(CN(C)C)c(O)ccc3nc2-1", "viability, T/C", 101),
]

The value of viability, T/C measured for the molecule Cn1ncnc1[C@H]1c2n[nH]c(=O)c3cc(F)cc(c23)N[C@@H]1c1ccc(F)cc1 + CC[C@@]1(O)C(=O)OCc2c1cc1n(c2=O)Cc2cc3c(CN(C)C)c(O)ccc3nc2-1 turned out to be 104

The value of viability, T/C measured for the molecule CNCc1ccc(-c2cc(-c3nc(-c4ccc(S(=O)(=O)C(C)C)cc4)cnc3N)on2)cc1 + CC[C@@]1(O)C(=O)OCc2c1cc1n(c2=O)Cc2cc3c(CN(C)C)c(O)ccc3nc2-1 turned out to be 76.9

----------
# Tested on: NCI-H196 SCLC complex tumor spheroid viability
# TEST: Anticancer human tumor NCI-H196 cell line growth inhibition;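 note: spheroids exposed to compounds for 7 days before readout; 100% = DMSO vehicle control wells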
# REPORTED CONDITIONS: second compound 0.0003 µM; first compound 1 µM; hits give low values
# Description: Multicellular complex tumor spheroid response to DNA repair inhibitors in combination with DNA-damaging drugs This study explores the anticancer activities of DNA-damaging drugs and inhibitors of DNA damage repair, both as single agents and in combinations. […] Twenty-six patient-derived or established malignant cell lines were evaluated representing sarcoma, melanoma, small cell lung cancer (SCLC), non-small cell lung cancer (NSCLC), as well as bladder, ovarian and pancreatic cancers. […]
Reported viability, T/C values for a set of compounds
# value in %; strip the unit string

Observe how each entry below is paired with its result.
# COMPOUND, TESTED SYSTEM, viability, T/C, %
measured = [
    ("CC1COCCN1c1cc(-c2ccnn2C)c2ccnc(-c3ccn[nH]3)c2n1 (stereo unspecified) + COc1cc2c(cc1O)CCNC21CSC2c3c(OC(C)=O)c(C)c4c(c3C(COC1=O)N1C(O)C3Cc5cc(C)c(OC)c(O)c5C(C21)N3C)OCO4", "NCI-H196 SCLC complex tumor spheroid viability", 59.2),
    ("Cc1cc(C)c(CNC(=O)c2cc(-c3ccc(CN4CCOCC4)cc3)cc3c2cnn3C2CCCC2)c(=O)[nH]1 + COc1cc2c(cc1O)CCNC21CSC2c3c(OC(C)=O)c(C)c4c(c3C(COC1=O)N1C(O)C3Cc5cc(C)c(OC)c(O)c5C(C21)N3C)OCO4", "NCI-H196 SCLC complex tumor spheroid viability", 105),
    ("[2H]c1nc(C)nc([2H])c1-c1cc(NC[C@@H](C)c2cccc3c(C(=O)NC)ccnc23)ncn1 + COc1cc2c(cc1O)CCNC21CSC2c3c(OC(C)=O)c(C)c4c(c3C(COC1=O)N1C(O)C3Cc5cc(C)c(OC)c(O)c5C(C21)N3C)OCO4", "NCI-H196 SCLC complex tumor spheroid viability", 105),
]

The compound CC(C)n1c(=O)n(C)c2cnc3cc(F)c(-c4ccc(OCCCN5CCCCC5)nc4)cc3c21 + COc1cc2c(cc1O)CCNC21CSC2c3c(OC(C)=O)c(C)c4c(c3C(COC1=O)N1C(O)C3Cc5cc(C)c(OC)c(O)c5C(C21)N3C)OCO4 , when measured on NCI-H196 SCLC complex tumor spheroid viability, yielded viability, T/C of 112

The compound COc1ccc([C@@H](O)c2cc(-c3ncnc4cc(N5CCOCC5)ccc34)c(F)cc2Cl)nn1 + COc1cc2c(cc1O)CCNC21CSC2c3c(OC(C)=O)c(C)c4c(c3C(COC1=O)N1C(O)C3Cc5cc(C)c(OC)c(O)c5C(C21)N3C)OCO4 , when measured on NCI-H196 SCLC complex tumor spheroid viability, yielded viability, T/C of 69.5

The compound COc1cc(C)[nH]c(=O)c1CN1CCc2c(Cl)cc(C(OC)C3COC3)c(Cl)c2C1=O (stereo unspecified) + COc1cc2c(cc1O)CCNC21CSC2c3c(OC(C)=O)c(C)c4c(c3C(COC1=O)N1C(O)C3Cc5cc(C)c(OC)c(O)c5C(C21)N3C)OCO4 , when measured on NCI-H196 SCLC complex tumor spheroid viability, yielded viability, T/C of 97.1

----------
# Tested on: NCI-H196 SCLC complex tumor spheroid viability
# TEST: Anticancer human tumor NCI-H196 cell line growth inhibition;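 note: spheroids exposed to compounds for 7 days before readout; 100% = DMSO vehicle control wells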
# REPORTED CONDITIONS: second compound 3.16 µM; first compound 0.1 µM; hits give low values
Reported viability, T/C values for a set of molecules
# value in %; strip the unit string

Observe how each entry below is paired with its result.
# MOLECULE, MEASURE NAME, UNIT SPEC, OBSERVED MEASUREMENT
rows = [
    ("[2H]c1nc(C)nc([2H])c1-c1cc(NC[C@@H](C)c2cccc3c(C(=O)NC)ccnc23)ncn1 + Cn1nnc2c(C(N)=O)ncn2c1=O", "viability, T/C", "%", 104),
    ("CC(C)n1c(=O)n(C)c2cnc3cc(F)c(-c4ccc(OCCCN5CCCCC5)nc4)cc3c21 + Cn1nnc2c(C(N)=O)ncn2c1=O", "viability, T/C", "%", 102),
    ("CC1COCCN1c1cc(-c2ccnn2C)c2ccnc(-c3ccn[nH]3)c2n1 (stereo unspecified) + Cn1nnc2c(C(N)=O)ncn2c1=O", "viability, T/C", "%", 77.7),
    ("COc1cc(C)[nH]c(=O)c1CN1CCc2c(Cl)cc(C(OC)C3COC3)c(Cl)c2C1=O (stereo unspecified) + Cn1nnc2c(C(N)=O)ncn2c1=O", "viability, T/C", "%", 98.8),
    ("Cc1cc(C)c(CNC(=O)c2cc(-c3ccc(CN4CCOCC4)cc3)cc3c2cnn3C2CCCC2)c(=O)[nH]1 + Cn1nnc2c(C(N)=O)ncn2c1=O", "viability, T/C", "%", 94.5),
]

Shifting focus to the molecule that follows.
The value of viability, T/C measured for the molecule COc1ccc([C@@H](O)c2cc(-c3ncnc4cc(N5CCOCC5)ccc34)c(F)cc2Cl)nn1 + Cn1nnc2c(C(N)=O)ncn2c1=O turned out to be 92.5

----------
# System: NCI-H196 SCLC complex tumor spheroid viability
# TEST: Anticancer human tumor NCI-H196 cell line growth inhibition;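 note: spheroids exposed to compounds for 7 days before readout; 100% = DMSO vehicle control wells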
# REPORTED CONDITIONS: second compound 0.03 µM; first compound 0.3 µM; hits give low values
Reported viability, T/C values for a set of compounds
# value in %; strip the unit string

Observe how each entry below is paired with its result.
# COMPOUND, viability, T/C / %
records = [
    ("Cn1ncnc1[C@H]1c2n[nH]c(=O)c3cc(F)cc(c23)N[C@@H]1c1ccc(F)cc1 + CC[C@@]1(O)C(=O)OCc2c1cc1n(c2=O)Cc2cc3c(CN(C)C)c(O)ccc3nc2-1", 108),
    ("CNCc1ccc(-c2cc(-c3nc(-c4ccc(S(=O)(=O)C(C)C)cc4)cnc3N)on2)cc1 + CC[C@@]1(O)C(=O)OCc2c1cc1n(c2=O)Cc2cc3c(CN(C)C)c(O)ccc3nc2-1", 93.2),
]

The value of viability, T/C measured for the compound Cc1sc2c(c1C)C(c1ccc(Cl)cc1)=NC(CC(=O)Nc1ccc(O)cc1)c1nnc(C)n1-2 (centres undefined) + CC[C@@]1(O)C(=O)OCc2c1cc1n(c2=O)Cc2cc3c(CN(C)C)c(O)ccc3nc2-1 turned out to be 64.7

The value of viability, T/C measured for the compound O=C(c1cc(Cc2n[nH]c(=O)c3ccccc23)ccc1F)N1CCN(C(=O)C2CC2)CC1 + CC[C@@]1(O)C(=O)OCc2c1cc1n(c2=O)Cc2cc3c(CN(C)C)c(O)ccc3nc2-1 turned out to be 98
